test system: Gonadotropin-releasing hormone receptor (Homo sapiens)
Sequence (P30968 whole entry): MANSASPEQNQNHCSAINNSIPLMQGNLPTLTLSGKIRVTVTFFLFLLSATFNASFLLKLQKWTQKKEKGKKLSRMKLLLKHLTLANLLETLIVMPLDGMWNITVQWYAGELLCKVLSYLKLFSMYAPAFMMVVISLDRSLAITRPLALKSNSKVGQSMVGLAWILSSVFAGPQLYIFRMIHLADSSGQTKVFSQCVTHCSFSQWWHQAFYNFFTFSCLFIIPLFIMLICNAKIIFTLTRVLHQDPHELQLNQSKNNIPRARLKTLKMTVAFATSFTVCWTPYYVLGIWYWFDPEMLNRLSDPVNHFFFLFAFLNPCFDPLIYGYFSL
assay method text: Binding affinity against human luteinizing releasing hormone receptor cloned in CHO cells
test readout: Ki (nM)
Report as a plain number; the unit nM is understood.

compound | test readout | scale unit | experimental result
CC[C@H]1OC(=O)[C@H](C)[C@@H](OC(=O)N2C(=O)OC[C@@H]2C)[C@H](C)[C@@H](OC2O[C@H](C)C[C@H](N(C)C3CCCCC3)[C@H]2O)[C@@](C)(OC)C[C@@H](C)C(=O)[C@H](C)[C@H]2N(CCc3ccc(Cl)c(Cl)c3)C(=O)O[C@]12C (some centres not stated) | Ki | nM | 7.24

Let's switch to this compound now.
Quick one: give measured Ki for CC[C@H]1OC(=O)[C@H](C)[C@@H](OC2C[C@@](C)(OC)[C@@H](O)[C@H](C)O2)[C@H](C)[C@@H](OC2O[C@H](C)C[C@H](N(C)C3CCCCC3)[C@H]2O)[C@@](C)(OC)C[C@@H](C)C(=O)[C@H](C)[C@H]2N(CCc3ccc(Cl)cc3)C(=O)O[C@]12C (some centres not stated)
204
